Reference source: the supplement of paper PMC9233669

- Tested on: biotinyl-Phe-oxazolone
- Measurement protocol: self-aminoacylation, catalytic enhancement (BFO) (fold over background); higher = more active; k-Seq, kA / k0A0; sequences stand for … in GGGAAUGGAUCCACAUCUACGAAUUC…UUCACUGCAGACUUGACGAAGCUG
Variants at the floor of the assay were thinned out.
Quantity: self-aminoacylation

For AUUACCCGGGUCAUCGAGUGA [Fam2.1 aminoacylation ribozyme variant] the sequence record lists self-aminoacylation as 44.9

Give measured self-aminoacylation for every item shown.
1. AGUACCCUGGUCAUCAAGUGA [Fam2.1 aminoacylation ribozyme variant]
2. CGACUCUUCAAGCAAUCGGUC [Fam1B.1 aminoacylation ribozyme variant]

Out:
1: 3.2; 2: 3.23

For CCACACUUCAUGCAAUCGGCC [Fam1B.1 aminoacylation ribozyme variant] the sequence record lists self-aminoacylation as 14.2
